- tgt: Na^+ /H^+ exchanger (Rattus norvegicus)
- Construct: endogenous in cells
- Sequence (P26431 whole entry): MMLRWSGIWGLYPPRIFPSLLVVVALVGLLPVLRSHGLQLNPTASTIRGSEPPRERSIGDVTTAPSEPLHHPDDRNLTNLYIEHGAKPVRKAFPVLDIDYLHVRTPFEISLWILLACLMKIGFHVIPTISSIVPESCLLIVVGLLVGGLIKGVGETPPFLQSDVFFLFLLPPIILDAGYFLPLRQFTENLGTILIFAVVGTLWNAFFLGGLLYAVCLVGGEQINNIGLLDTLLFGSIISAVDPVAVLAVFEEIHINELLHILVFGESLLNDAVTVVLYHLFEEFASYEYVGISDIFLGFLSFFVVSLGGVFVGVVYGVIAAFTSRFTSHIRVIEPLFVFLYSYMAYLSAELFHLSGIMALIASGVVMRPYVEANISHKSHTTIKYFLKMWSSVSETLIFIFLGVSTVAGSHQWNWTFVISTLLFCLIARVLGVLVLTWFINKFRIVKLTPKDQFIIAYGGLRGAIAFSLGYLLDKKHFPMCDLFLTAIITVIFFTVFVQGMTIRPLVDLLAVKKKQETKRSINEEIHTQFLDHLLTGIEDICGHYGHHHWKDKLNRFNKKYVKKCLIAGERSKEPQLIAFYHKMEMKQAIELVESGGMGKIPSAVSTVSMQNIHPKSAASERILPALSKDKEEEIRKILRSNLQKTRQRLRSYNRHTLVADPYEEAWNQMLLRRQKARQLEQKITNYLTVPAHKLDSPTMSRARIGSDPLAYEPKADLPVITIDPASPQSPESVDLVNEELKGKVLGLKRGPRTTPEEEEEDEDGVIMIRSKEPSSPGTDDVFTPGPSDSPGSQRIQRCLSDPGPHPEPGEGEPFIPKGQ
- test: Inhibitory activity on Na^+ /H^+ exchange in cells (thymocyte swelling in sodium propionate medium)
- assay_setup: apparent Ki, Lineweaver-Burk plot; rate of swelling of thymocytes (male SD strain); sodium-propionate medium pH 6.8; 0.1% DMSO; 3-5 concentrations
measure_name: Ki

Problem: Returns the measured Ki for the input molecule. Input: CS(=O)(=O)c1cc(C(=O)N=C(N)N)cc(-n2cccc2)c1
Result: < 100 nM
